target: UniProt Q72874; experiment: In vivo for antiviral activity (ED90) against HIV-1 protease.; assay type: organism-based
Metric: ED90 (nM)

INSERT INTO measurements (compound, system_name, metric, experimental_value) VALUES
  ('COC(=O)N[C@H](C(=O)N[C@@H](Cc1ccccc1)C(O)CN(Cc1ccc(C#N)cc1)NC(=O)[C@@H](NC(=O)OC)C(C)C)C(C)C (some centres undefined)', 'UniProt Q72874', 'ED90', 1000),
  ('COC(=O)NC(C(=O)NN(CC1CCCCC1)C[C@H](O)[C@H](Cc1ccccc1)NC(=O)[C@H](CC(N)=O)NC(=O)c1ccc2ccccc2n1)C(C)C (some centres undefined)', 'UniProt Q72874', 'ED90', 100),
  ('COCCOC(=O)NC(C(=O)N[C@@H](Cc1ccccc1)[C@H](O)CN(CC1CCCCC1)NC(=O)C(NC(=O)OCCOC)C(C)C)C(C)C (some centres undefined)', 'UniProt Q72874', 'ED90', 300),
  ('COC(=O)N[C@H](C(=O)N[C@@H](Cc1ccccc1)C(O)CN(CC1CCCCC1)NC(=O)[C@@H](NC(=O)OC)C(C)C)C(C)C (some centres undefined)', 'UniProt Q72874', 'ED90', 100);
